# test_system: human MASP-2 (in normal human serum) (human, UniProt O00187 16-686)
# Sequence (O00187 16-686 limits assumed): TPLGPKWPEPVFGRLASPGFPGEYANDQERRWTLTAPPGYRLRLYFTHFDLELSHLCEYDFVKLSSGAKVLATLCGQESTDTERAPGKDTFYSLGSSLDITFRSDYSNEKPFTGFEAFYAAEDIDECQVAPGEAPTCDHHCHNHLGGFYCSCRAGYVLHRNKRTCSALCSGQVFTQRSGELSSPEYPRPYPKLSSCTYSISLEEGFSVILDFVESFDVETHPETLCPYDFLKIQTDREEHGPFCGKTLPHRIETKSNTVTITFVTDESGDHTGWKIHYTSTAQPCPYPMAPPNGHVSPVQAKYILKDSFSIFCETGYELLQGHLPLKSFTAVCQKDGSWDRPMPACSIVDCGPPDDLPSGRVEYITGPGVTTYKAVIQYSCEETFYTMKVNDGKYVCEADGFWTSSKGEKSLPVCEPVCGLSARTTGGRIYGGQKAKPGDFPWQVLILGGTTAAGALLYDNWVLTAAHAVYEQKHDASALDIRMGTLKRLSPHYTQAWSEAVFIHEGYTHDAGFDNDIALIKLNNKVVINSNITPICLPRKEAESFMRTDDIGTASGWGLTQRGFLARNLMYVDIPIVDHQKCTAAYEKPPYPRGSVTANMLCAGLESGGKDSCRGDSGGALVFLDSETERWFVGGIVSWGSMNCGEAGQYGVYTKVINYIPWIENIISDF
# protocol: cell-based or functional assay
Where no end group is shown, it is not given here.
recorded_metric: Relative potency, lectin pathway, human serum (fold vs EVO2)
Give bare numbers, in fold vs EVO2.

Please review the following examples before continuing.
binder	u	numeric_readout
EVO212 (designed binder, not fully specified; ends and bridges not checked, Modified TFPI-D2 Kunitz domain; made as m1) KPDFCFLENDPGLCRALKRRYFYNNQTKQCERFGYGGCLGNMNNFVTLEECKNICEDG	fold vs EVO2	22.1
EVO211 (designed binder, not fully specified; ends and bridges not checked, Modified TFPI-D2 Kunitz domain; made as m1) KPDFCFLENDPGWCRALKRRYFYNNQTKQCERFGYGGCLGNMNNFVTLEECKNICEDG	fold vs EVO2	44
EVO22 (designed binder, not fully specified; cysteine pairing not given here, Modified TFPI-D2 Kunitz domain; made as m1) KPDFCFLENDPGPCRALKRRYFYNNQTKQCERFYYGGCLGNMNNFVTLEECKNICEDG	fold vs EVO2	33.4

Answer for every listed entry: what is its Relative potency, lectin pathway, human serum? The entries follow.
1. EVO22b (designed binder, not fully specified; cysteine pairing not given here, Modified TFPI-D2 Kunitz domain; made as m1) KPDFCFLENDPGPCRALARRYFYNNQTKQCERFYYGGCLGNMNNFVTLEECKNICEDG
2. EVO2c (designed binder, not fully specified; cysteine pairing not given here, Modified TFPI-D2 Kunitz domain; made as m1) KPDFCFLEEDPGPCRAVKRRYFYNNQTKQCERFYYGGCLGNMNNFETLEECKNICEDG
3. EVO221 (designed binder, not fully specified; cysteine pairing not given here, Modified TFPI-D2 Kunitz domain; made as m1) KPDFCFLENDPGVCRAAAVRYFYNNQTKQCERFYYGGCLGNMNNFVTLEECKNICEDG
4. EVO2a (designed binder, not fully specified; cysteine pairing not given here, Modified TFPI-D2 Kunitz domain; made as m1) KPDFCFLENDPGPCRAVKRRYFYNNQTKQCERFKYGGCLGNMNNFETLEECKNICEDG
5. EVO21c (designed binder, not fully specified; cysteine pairing not given here, Modified TFPI-D2 Kunitz domain; made as m1) KPDFCFLEEDPGPCRALKRRYFYNNQTKQCERFGYGGCFGNMNNFVTLEECKNICEDG
6. EVO22d (designed binder) KPDFCFLEEDPGPCRAAKRRYFYNNQTKQCERFYYGGCFGNMNNFVTLEECKNICEDG
7. EVO22a (designed binder, Modified TFPI-D2 Kunitz domain; made as m1) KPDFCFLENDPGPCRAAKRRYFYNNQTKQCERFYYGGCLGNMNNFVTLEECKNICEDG
8. EVO21 (designed binder, not fully specified; ends and bridges not checked, Modified TFPI-D2 Kunitz domain; made as m1) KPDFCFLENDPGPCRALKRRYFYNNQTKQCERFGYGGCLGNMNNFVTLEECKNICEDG

1. 10
2. 6.2
3. 10.9
4. 0.6
5. 22.4
6. 24.7
7. 37.1
8. 24.1
